Field: inhibition. Provide a value for each of the compounds that follow.
- Test system: Nicotinate-nucleotide adenylyltransferase NadD (Staphylococcus aureus N315)
- Procedure Text: inhibitors of S. aureus NadD, primary screen, biochemical, colorimetric, uHTS (AID 602399)
- Condition: purified NadD enzyme, colorimetric absorbance read-out; at 20 µM; active compounds read high
Hit rate of the full screen: of about 360,000 compounds, about 2,800 (0.78%) were called active. The full list was thinned out, with actives kept by preference.
Report as a plain number; the unit % is understood.

Sure, the documented inhibition for COc1ccccc1C(=O)NCC(=O)OCC(=O)Nc1nnc(-c2ccccc2)o1 is 10.3

Sure, the documented inhibition for O=C(COC(=O)c1ccc(Oc2ccccc2)cc1)Nc1nnc(-c2ccccc2)o1 is 47.6

Sure, the documented inhibition for CN1CCN(CC#CCC2(O)c3ccccc3-c3ccccc32)CC1 is -2.12

Sure, the documented inhibition for Cc1ccc2nsnc2c1S(=O)(=O)N1CCCC1C(=O)O (stereo unspecified) is -6.81

Sure, the documented inhibition for O=C(COC(=O)c1ccccc1)Nc1ccccc1Sc1ccccc1 is -7.21

Sure, the documented inhibition for CCOC(=O)c1ccccc1N1C(=O)C2Sc3[nH]c(=O)sc3C(/C=C/c3ccccc3)C2C1=O (stereo unspecified) is 42.2

Sure, the documented inhibition for Cc1cc(CNCc2c(C(=O)N(C)Cc3ccccc3)nc3ccccn23)nn1C is -2.9

Sure, the documented inhibition for CCCCc1cc(=O)oc2c(C)c(OCC(=O)N3CCC(C(N)=O)CC3)ccc12 is -1.4

Sure, the documented inhibition for CCNc1nc(N)nc(Oc2ccc(OCC)nn2)n1 is -1.59

Sure, the documented inhibition for Cc1cc(C)cc(N(CC(=O)Nc2c(C)n(C)n(-c3ccccc3)c2=O)S(C)(=O)=O)c1 is 0.515

Sure, the documented inhibition for C/C=C/C=C/C(=O)O is 2.73
